tested.target: pooled human IgG (human IgG1,2,3 and 4)
In this section we review reported Enzyme Activity Endpoint Assay: Fab′2 values for a set of proteins.
parameter.measured: Enzyme Activity Endpoint Assay: Fab′2

protein="PRT-502 (protein) MITSVWTKGVTPPTDFIKGEDVFHAPYKAGQGWYDITKAFDGGDDLLCGAATAGNMLHWWFDQNKEYIEAYLKKHPEKQKIMFGDQELLDVRKAINTKGSQKNSELFNYFRDKAFPNLSARRLGVMPDLVLDMFINGYYLNVTKTQTTDVNRQEQEKDKRGGIFDAVFGRGDQTKLLTSRHDFKEKGLNEISQLIKQELTEGKALGLSHTYANVRINHVINLWGADFDADGNLEAIYVTDSDSNASIGMKKYFVGVNSAGKVAISAKEIKEDNIGAQVLGLFTLSTGQKIWNKTNLEHHHHHH" recorded_value="307 ng/µL"
protein="PRT-94 (protein) MANQEIRYSEETPYHVTSVWTKGVTPPAKFTQGEDVFHAPYVANQGWYDITKTFNGKDDLLCGAATAGNMLHWWFDQNKEKIEAYLKKHPDKQKIMFGDQELLDVRKVINTKGDQTNSELFNYFRDKAFPGLSARRIGVMPDLVLDMFINGYYLNVYKTQTTDVNRTYQEKDRRGGIFDAVFTRGDQSKLLTSRHDFKEKTLKEISDLIKKELTEGKALGLSHTYANVRINHVINLWGADFDSNGNLKAIYVTDSDSNASIGMKKYFVGVNSAGKVAISAKEIKEDNIGAQVLGLFTLSTGQDSWNQTN" recorded_value="547 ng/µL"
